# Test system: MS2 coat protein
# ASSAY_COMMENT: apparent KD of MS2 coat protein; designed switch direction (-1 OFF switch, 1 ON switch): -1; higher = weaker reporter binding
# ASSAY_CONTEXT: input ligand: FMN 200 uM
QUANTITY_KIND: apparent KD of MS2 coat protein

>>> readout_value("AUGCGACAUGAGGAUCACCCAUGUGAGGAUAUUCGAAUGCACAAUUCGGUGUGAUAGAGGAGAAGGCGCAGGUA [EX1 #19] (Eterna round: R97, puzzle: Exclusion 1)")
"154 nM"
>>> readout_value("UUGAUACAUACCUCCAUAAACAUGAGGAUCACCCAUGUAAGUGAGGAUAUAGAUUGAUUAGUAUACUAGAAGGCACUUAGAUAU [JR_ExcNG3_Sub044] (Eterna round: R96, puzzle: Exclusion NG 3)")
"11.6 nM"
>>> readout_value("CUACAUCGAGGAUAUGCAAACGUAAACAUGAGGAUCACCCAUGUGACGUCAUAUUACGUAGUAGAAGGCGAAAAUA [Anlein] (Eterna round: R97, puzzle: Exclusion 5)")
"20.2 nM"

###

# Test system: MS2 coat protein
# ASSAY_COMMENT: apparent KD of MS2 coat protein; designed switch direction (-1 OFF switch, 1 ON switch): -1; higher = weaker reporter binding
# ASSAY_CONTEXT: Eterna round: R95; input ligand: FMN 200 uM
QUANTITY_KIND: apparent KD of MS2 coat protein

>>> readout_value("AGUAGUUGUUUCCGUUCUUACAUGAGGAUCACCCAUGUUUCUUGUCGUGCUCGCGUUGCUCGUCAGACUACCAGUUG [salish99_TOv1_r3_061] (puzzle: Sensor v3, turn-off variant 1)")
"62.4 nM"
>>> readout_value("GCAUGGAGACAGGAUAUCCGCGCGAACAAAAUAGGAGAAGGGUCUACAUGAGGAUCACCCAUGUGACGGUAUCC [Aedenqu] (puzzle: Exclusion 6)")
"62.2 nM"
>>> readout_value("GAUAAGGUAGGAUAUACGAAGAAAGAGGGUAGUAAUAAUACACAUGAGGAUCACCCAUGUAGAAGGACCAAUAG [Mat - Exclusion 2 - Mod of my Tesla design - D43] (puzzle: Exclusion 2)")
"39.1 nM"
>>> readout_value("ACAAGCUUUUUGCUCGGGUACAUGAGGAUCACCCAUGUUUGUGUUUAUUGAGGUUGUGUUGUCGUGCGCUGCAGGUU [JR_SV3TOV1_Sub077] (puzzle: Sensor v3, turn-off variant 1)")
"59.3 nM"
>>> readout_value("AAUUGCUAGCCGAUCCUCCACAUGAGGAUCACCCAUGUGCUCGUCUUGUAAUGUGCUAUCACGAAAGUGAUAGUACA [Sensor v3, turn-off variant 1 (MOD of Eli's v1-59 v.4)] (puzzle: Sensor v3, turn-off variant 1)")
"413 nM"

###

# Tested on: MS2 coat protein
# ASSAY_COMMENT: apparent KD of MS2 coat protein; designed switch direction (-1 OFF switch, 1 ON switch): -1; higher = weaker reporter binding
# ASSAY_CONTEXT: input ligand: none
QUANTITY_KIND: apparent KD of MS2 coat protein (nM)

>>> readout_value("GAAAACGAUGAGGAUAUAUGAUAUCAAAGCAUCAUAGAAGGCAUCACAUGAGGAUCACCCAUGUGAUCUUCUUG [Mat - Exclusion 6 - JL Mod - D31] (Eterna round: R97, puzzle: Exclusion 6)")
26.6
>>> readout_value("AAAUCGGAGGAGGAUAUGGUACAGGAAACGGUGCCAGAAGGUUUCACAUGAGGAUCACCCAUGUCAAAUAGCGA [EX6 #59] (Eterna round: R97, puzzle: Exclusion 6)")
20.3
>>> readout_value("UGCAGACGAGGAUAUAAAUUUAAAUACAUGAGGAUCACCCAUGUAUAAAUGUAUUUAAAUUUAGAAGGCGUCUGCU [E5/12-A4] (Eterna round: R97, puzzle: Exclusion 5)")
606
>>> readout_value("UCCUGUUAUGUUAGGAUAUCUGGUUCGACUCGAACAGAGAAGGAACAUGAGGAUCACCCAUGUCCCGGUGAUAA [Eternabot (L2) Solution 19] (Eterna round: R97, puzzle: Brourd's mod of Exclusion 4)")
33.1
>>> readout_value("UGCCUAGCAGGAUAUGCUCGGGAUUACAUGAGGAUCACCCAUGUGACUGAUUGUUGUCUUGCAGAAGGGCUAGGGA [JL-EX5-4.05 ViennaUCT mod] (Eterna round: R97, puzzle: Exclusion 5)")
99.7

###

# Tested on: MS2 coat protein
# ASSAY_COMMENT: apparent KD of MS2 coat protein; designed switch direction (-1 OFF switch, 1 ON switch): -1; higher = weaker reporter binding
# ASSAY_CONTEXT: input ligand: FMN 200 uM
QUANTITY_KIND: apparent KD of MS2 coat protein (nM)

>>> readout_value("ACAUGAGGAUCACCCAUGUCCGUCUGGUCUGUCUCGGCUGUCGAGGAUAUAGCUCGGUAUCCGCGCUAGAAGGCGGGAGUCGGU [Aenatbe mod 93] (Eterna round: R96, puzzle: Exclusion NG 3)")
73.6
>>> readout_value("CGGUCACUAGGAUAUCAGGAAAACUACAUGAGGAUCACCCAUGUACUGAGUGUAGGAGACUGAGAAGGAGUUCUUA [EX5 C.4] (Eterna round: R97, puzzle: Exclusion 5)")
31.5
>>> readout_value("CAGCGUGAAGGAUAUACAUGAGGAUCACCCAUGUGCAACUCUCCAACUCGGACUCCCUGUAGAAGGUCGGCUUU [Eternabot (L2) Solution 88] (Eterna round: R97, puzzle: Exclusion 3)")
26.9

###

# Test system: K4 kissing-loop RNA reporter;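 also: bound reporter read as fluorescence of individual clusters on recovered sequencing chips by microscopy, with normalized cluster intensities fitted with a binding model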
# ASSAY_COMMENT: apparent KD of K4 kissing-loop reporter; higher = weaker reporter binding
# ASSAY_CONTEXT: Eterna round: R107; input ligand: FMN 200 uM
QUANTITY_KIND: apparent KD of K4 kissing-loop reporter (nM)

>>> readout_value("AAGUGAUGUUGUAGUGAUGUUGUGAUGUUGCAGGAUAUAUAGUGAUGUAGAAGGGUAAGGACUGUUUUUUUUUUUGAGUGAUGUU [ookooyzrmullin]")
94.2
>>> readout_value("AAGGUGAUCCUCGAUACCAGCUCAAAAUGAGUGAUGUUCAUGAAAGCCUGGAAACAGGCGAGCCCUUGGCAGCGAGUUACAUCAA [KL-SSTheoB8]")
204
>>> readout_value("UCCAAGGACGAACCGGUAUGAUCACCGGAUACCAGAGGCGAAAGCCUCCCUUGGCAGCCGAGUGUAGUGAUGUUACACUGGUUCU")
89.8
>>> readout_value("CCGAUACAUUAUUCUACGGCCGAGAGCGAUACCAGCCAAAUUUAUGGCCCUUGGCAGCGCAGAUGCAGUGAUGUUGCAUACAUAC [Same State Theophylline A GF 18]")
102
>>> readout_value("AUUAAUUUCAGAGGAUAUGCUUUAUUAUUAUUUUUAAAUAAUAUAAGCAGUGAUGUUGCUUUUUAUGCAGAAGGCUGAUUUAUAA [JR_SSFMNB_Sub016]")
137
>>> readout_value("UGAUAGGACAGAAGGAGCGGAAGUGAUGUUUCCAAUGGAUAAAAGGUGUCAAAGACACCCUUCCAGGUAGGUCGCUGUCCUAUCU [ArgBX 17 #Palindromic #SwitchBubble #StaticStem]")
146
>>> readout_value("UGACUGGAUGGAAGGAGCGCUAAACUCCUAGUGAUGUUAGGGAAACGAGACAAAGUCUCGAAGCAGGUAGGUCGCCAUCUAGUCU [FiskerMod 14 - Jieux - Same State - Arginine B]")
176
>>> readout_value("UGGAGUUGACGAAAAGUCAACUCCCGAGAAGGAGCGGACGAAAGUCCAGGUAGGUCGCUCGCUACCAGUGAUGUUGGUACUCAAA")
127
>>> readout_value("CCUUCUCUUGAUAGUGAUGUUGUCAAGGGCAAGGAUAUCAUCUUAAUGAGAAGGUGUCCUUGAUAACAUGGAGGUCUGAAACAGA [Omei KL FMN A Exc C v7]")
123
>>> readout_value("UGCGCUGUGUACUGUAAUGUUAUGCGGGAUACCAGAGUCUUUUUAUUCCCUUGGCAGCUUGAGUGAUGUUUGAUGCCGUUCUUGU [plpkmullin]")
481
>>> readout_value("AAAUAGAUCAGUCACCCAGUGAUGUUGGAAGGAGCGUGCGAAAGCACAGGUAGGUCGCCAAAACCUAAGUGGCUGAUCAAAAUAA [#SwitchBubble 4 #K4Early]")
838
>>> readout_value("GUUAUGGACCUGGAUACCAGCUGGUACUAAGUGGGAGAAUGAAAGUGAUGUUUUCGUGCUAGCCCUUGGCAGCCAGCAACCCGCA [XTheo-B7]")
104

###

# Tested on: MS2 coat protein
# ASSAY_COMMENT: apparent KD of MS2 coat protein; higher = weaker reporter binding
# ASSAY_CONTEXT: Eterna round: R107; input ligand: none
QUANTITY_KIND: apparent KD of MS2 coat protein

>>> readout_value("AACGUAUACAGAAGGAGCGUGAUUUAUAUUUCUUUAACAUAUACAUGAGGAUCACCCAUGUCACAGGUAGGUCGCUGUAUUCGUA [JR_ExcArginiB_Sub023]")
"0.0311 µM"
>>> readout_value("GGACUAACCAGAAGGAGCGGCACAAAGCAGAAACUGCAUCCUCCGCACGAGGAUCACCCGUGUCAGGUAGGUCGCUGGUUAGUCG [ArgBX 28]")
"0.0575 µM"
>>> readout_value("ACACAUGAGGAUCACCCAUGUGCGCUGGAAGGAGCGCAGAAUCAUGCAGGUAGGUCGCCAGUGCCUUUUGAUAAAGGGAAAAGAA [Cezaquce]")
"0.0861 µM"
>>> readout_value("GCUAGGUCAUCGGCCGCCACUAACGAAGGUUCGAACAUGAGGAUCACCCAUGUGCCACAUGCGCAUAGGACCGGGAUGACCUAGC [SSTB NP+V+V2 #7 +-Same Structure]")
"0.0173 µM"
>>> readout_value("GGUCGCCAACAUGGGUGGGCGACCCUGGAAGGAGCGAGCGAGAGCUCAGGUAGGUCGCCAGAACAUGAGGAUCACCCAUGUAAUA [(A)''-(M)'-(A)'(Arg1)-(Arg2)-(M1)-(M2)_Design13]")
"0.0445 µM"
>>> readout_value("AAACGCCACGGAAGGAGCGACAUGAGGAUCACCCAUGUAGAAGUGGCGGAUGCACCCUCCUGUCAGGUAGGUCGCCGUGCGCCAA [XArg-B24]")
"0.0212 µM"
>>> readout_value("AACGUAUACAGAAGGAGCGUGAAUUAUAUUACUCAUUCUUAUACAUGAGGAUCACCCAUGUCACAGGUAGGUCGCUGUAUUCGUA [JR_ExcArginiB_Sub019]")
"0.106 µM"
>>> readout_value("CAUUAAUUACGAAGGAGCGUCGAAAAUGGGUAAACAUGAGGAUCACCCAUGUAAAGGGAACGACAGGUAGGUCGCGUAAUUAAUG [AstromonsSSArgB#2]")
"0.17 µM"
>>> readout_value("AUGUCUGAGUCGGCCGCCACUGGGUGUGGGUGAUGCCGGAUGUUGUACAUGAGGAUCACCCAUGUCAGGACCGGGAUUCCCACGA [Receve]")
"0.0104 µM"
>>> readout_value("CUGGACAUGAGGAUCACCCAUGUAAAUCCUCGAGGACCGGUACGGCCGCCACUCGAACGAGUGGCGCGCGCGCGCGCGCGCGCGC [aIa]")
"0.0543 µM"
>>> readout_value("AGGUGCAAAGCACCCUCUGGCCCUCGUGAAGGAGCGCUCGAAAGAGCAGGUAGGUCGCAUGAGGAUCACCCAUGUGAGCCAGAGA [Arg A Exc A v1]")
"0.0525 µM"
>>> readout_value("UCGCUCUGGGUGAGAUCCGGAGAUGUGGAAGGAGCGCUGGAAACAGCAGGUAGGUCGCCAACGGACAUGAGGAUCACCCAUGUAC [Same State - Arginine A (Freestyle 19)]")
"0.0444 µM"
